# Procedure Summary: 14C assay with IPTG-induced recombinant E. coli cells: 14CO2 captured from [14C]-carboxyl-labeled dicamba
# Measurement Parameters: induced recombinant E. coli cells, [14C]-carboxyl-labeled dicamba, 14CO2 capture

[
  {
    "Molecule": "10 (protein, listed as Starkeya novella) MARKIALEEHFTTPELAGKYVARPTQSDALFADIERRLADFDELRLEMMDRAEIDLMVLSVTTPGVQGVRDTGEAIRLARGANDFLAREVQKRPSRYAGFAHLAMQDAEAAATELERAVRELGFRGALINGQTNGHYLDEDQYAPFWERVQELDVPVYLHPGNMADSPAMFAHRPELGGPIWAWTAETAAHALRLVFGGTFTRFPGAKVILGHMGETLPFLLWRLDSRREFDLGEKLAPDALPSAIIKRNIAVTTSGVCDPAPLVAALQALSDDNVMFSVDYPYEDPQLASKFIETAPIGEETRAKVCHGNAERLLGL",
    "Dicamba Decarboxylase Activity": "Low"
  },
  {
    "Molecule": "26 (protein, listed as Variovorax paradoxus) MATHMAPMKNKIALEEHFAIDLTIADSQVYARPEVWQGLKSNLLDFEQQRLEKMDEWGTEFSILSLNSPAVQGIPDAKRAIEVAQRANDVLAEQVKRHPTRFGGFAALPMQDPEASARELERCVNQLGFHGFLVNGFSQVGDENIVVYYDDARFNDFWTAAAALKKPFYMHPRDPLLAREPIYDGAHWLTGPTWAFAMETAIHALRLMSSGMFDRHPALQMILGHFGEGIPFNIWRVDHILRKGRRGMPCDKEIGEYLRSNVHITTSGNFRTPTLLSTMLEVGSDRIMYSVDYPFEKHEDAARWFDTCEISENDRQKIGRDNARKLFGLK",
    "Dicamba Decarboxylase Activity": "High"
  },
  {
    "Molecule": "16 (protein, listed as Staphylococcus aureus) MAQNNMEANQMKSITFEEHYVIEDIQKETMNAISADPKGVPMKVMLEGLEKKTGFTNADELSHHDERIQFMNNQDVQIQVLSYGNGSPSNLVGQKAIELCQKANDQLANYIAQYPNRFVGFATLPINEPETAAREFERCINDLGFKGALIMGRAQDGFLDQDKYDIIFKTAENLGVPIYLHPAPVNSDIYQSYYKGNYPEVTAATFACFGYGWHIDVGIHAIHLVLSGIFDRYPKLNMIIGHWGEFIPFFLERMDEALFAEHLNHPVSYYFKNNFYITPSGMLTKPQFDLVKKEAGIDRILYAADYPYIEPEKLGVFLDELGLTDEEKEKISYTNGAKLLGLSSNN",
    "Dicamba Decarboxylase Activity": "High"
  },
  {
    "Molecule": "59 (protein, alpha proteobacterium) MAPSVIDAHAHFLPGSLVTALRSRSDAPDIRTDSNGGESFGIYRTRMPYGRTYDALDVRLARMDELGVDRQILSLPGLFGIDSRPVSQALPLVRAFNDGVADLVRKHPDRFSGIAALPLADLDAAQEEYRRARGDLGLSGLILPGDTFVSVAAAERVRPLFELAATIGGLIFVHPGPLPDETGSAVDAPAPHTDSVVHRRVTVDIQNRMTEVMVTLALTDFLAPYPSVPVQVANLGGSLPFVIERMDHVYALRNPEAPPPSLSLRSLYVDAASLGPRAIALAAEVYGADRVLFGSDYPIFDDGRCLDAVRQTRLSPDARALIAGGNAARMLTQT",
    "Dicamba Decarboxylase Activity": "No"
  }
]
